koff values for the binders below.
- target: T1, huNotch2-EGF6-10 (human, UniProt Q04721 219-418)
- T1 construct: also called human Notch2 EGF6-10
- T1 sequence: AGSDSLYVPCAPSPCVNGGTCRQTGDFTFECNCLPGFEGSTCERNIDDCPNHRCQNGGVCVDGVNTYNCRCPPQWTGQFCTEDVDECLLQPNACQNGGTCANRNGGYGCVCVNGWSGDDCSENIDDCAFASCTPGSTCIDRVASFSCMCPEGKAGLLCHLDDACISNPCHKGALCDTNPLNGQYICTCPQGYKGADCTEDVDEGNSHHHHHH
- assay-notes: SPR BIAcore T200, antibody captured on protein A, 37 C
measured-attribute: koff (s⁻¹)

binder: hu1B2.L7H10 (antibody, V domains shown, Human IgG1 backbone) VH: EVQLVESGGGLVQPGGSLKLSCAVSGFTFSDFYMEWVRQASGKGLEWVAASRNKANDFSIVYSASVKDRFTISRDDSKSTAYLQMNSLKTEDTAVYYCSRDSGRWGLDAWGQGTLVTVSS VL: DIQMTQSPSSVSASVGDRVTITCQTSEDIYSGLAWYQQKPGKSPKLLIYGASRLQDGVPSRFSGSGSGTDYTLTISSLQPEDFATYYCQQGFKYPLTFGGGTKVEIK
recorded-value: 0.00415

binder: rat.1B2 (rat/human chimeric anti-Notch2 antibody 1B2) (antibody, V domains shown, also called 1B2 Chimeric; chimeric 1B2) VH: EVKLVDYGGGLVQPGASLRLSCEVSGFTFSDFYMEWIRQAPGKGLEWIAASRNKANNFSIVYSASVKDRFTISRDTYKSILYLQMSTLKPEDTAVYYCSRDSGRWGLDAWGQGTSVIVSS VL: DIQMTQSPASLSASLGETVTIQCQTSEDIYSGLAWYHQKPGKSPQLLIYGASRLQDGVPSRFTGSGSGTQYSLKISSMQTEDEGVYFCQQGFKYPLTFGSGTKLEIK
recorded-value: 0.000943

binder: rat.3107 (rat/human chimeric anti-Notch2 antibody 3107) (antibody, V domains shown) VH: QVQLQQSGAELAKSGSSVKISCKASGYTFSNYVIHWIKQTTGQAPEWTGYIIPGSGGTKFNEKFKGKATLTVDKSSTTAYMQLSSLTPVDTAVYYCARDGAGSFTYWGQGTLVTVSS VL: DVLMTQTPVSLPVSLGGQVSISCRSSQSLVHSDGNTYLHWFLQKPGQSPQLLIYRISNRFSGVPDRFSGSGSGTDFTLKISRVEPEDLGVYYCLQSTHFPDTFGGGTKVEIK
recorded-value: 0.00182

binder: hu1B2.L1H1.DFS (antibody, V domains shown, Human IgG1 backbone; also called hu1B2.v1.DFS) VH: EVQLVESGGGLVQPGGSLKLSCAVSGFTFSDFYMEWIRQASGKGLEWIAASRNKANDFSIVYSASVKDRFTISRDTSKSTLYLQMNSLKTEDTAVYYCSRDSGRWGLDAWGQGTLVTVSS VL: DIQMTQSPSSVSASVGDRVTITCQTSEDIYSGLAWYQQKPGKSPKLLIYGASRLQDGVPSRFSGSGSGTDYTLTISSLQPEDFATYFCQQGFKYPLTFGGGTKVEIK
recorded-value: 0.00116

binder: hu1B2.v103 (antibody, V domains shown, Human IgG1 backbone) VH: EVQLVESGGGLVQPGGSLKLSCAVSGFTFSDFYMEWVRQASGKGLEWVAAQRNKANDFSIVYSASVKDRFTISRDDSKSTLYLQMNSLKTEDTAVYYCSRDGGKWGLDAWGQGTLVTVSS VL: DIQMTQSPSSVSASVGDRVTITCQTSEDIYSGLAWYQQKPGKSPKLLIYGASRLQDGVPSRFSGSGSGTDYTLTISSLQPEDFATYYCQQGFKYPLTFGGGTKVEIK
recorded-value: 0.000817

binder: hu1B2.L7H14 (antibody, V domains shown, Human IgG1 backbone; also called hu.1B2.DFS.H14L7) VH: EVQLVESGGGLVQPGGSLKLSCAVSGFTFSDFYMEWVRQASGKGLEWVAASRNKANDFSIVYSASVKDRFTISRDDSKSTLYLQMNSLKTEDTAVYYCSRDSGRWGLDAWGQGTLVTVSS VL: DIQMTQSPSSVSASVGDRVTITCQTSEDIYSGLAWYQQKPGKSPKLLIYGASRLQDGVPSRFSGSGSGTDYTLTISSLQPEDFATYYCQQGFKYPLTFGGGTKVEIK
recorded-value: 0.00134

binder: hu1B2.v101 (antibody, V domains shown, Human IgG1 backbone) VH: EVQLVESGGGLVQPGGSLKLSCAVSGFTFSDFYMEWVRQASGKGLEWVAAQRNKANDFSIVYSASVKDRFTISRDDSKSTLYLQMNSLKTEDTAVYYCSRDGGRWGLDAWGQGTLVTVSS VL: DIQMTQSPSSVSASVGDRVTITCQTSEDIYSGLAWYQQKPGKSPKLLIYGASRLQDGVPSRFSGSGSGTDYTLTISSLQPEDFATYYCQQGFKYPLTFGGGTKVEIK
recorded-value: 0.000813
